# System: A549
# Assay overview: Antiproliferative activity against human A549 cells incubated for 72 hrs by MTT assay
# Type: functional, cell-based
# Assay conditions: A549, 72 h
Assay endpoint: IC50 (µM)

Worked examples follow.
Compound	Assay endpoint	Readout number
COc1cc(F)ccc1-c1ncnc(Nc2cccc(CS(C)(=O)=NC(=O)CCC(=O)CCC(=O)NCCCCCNc3cccc4c3C(=O)N(C3CCC(=O)NC3=O)C4=O)c2)n1 (configuration not stated)	IC50	11.1
COc1cc(F)ccc1-c1ncnc(Nc2cccc(C[S@](C)(=N)=O)c2)n1	IC50	3.29
COc1cc(F)ccc1-c1ncnc(Nc2cccc(CS(C)(=O)=NC(=O)COCCOCCOCC(=O)NCCNc3cccc4c3C(=O)N(C3CCC(=O)NC3=O)C4=O)c2)n1 (configuration not stated)	IC50	13.2
COc1cc(F)ccc1-c1ncnc(Nc2cccc(CS(C)(=O)=NC(=O)COCCOCCOCC(=O)NCCCCCNc3cccc4c3C(=O)N(C3CCC(=O)NC3=O)C4=O)c2)n1 (configuration not stated)	IC50	6.15

[a] COc1cc(F)ccc1-c1ncnc(Nc2cccc(CS(C)(=O)=NC(=O)CCCCCCCC(=O)NCCNc3cccc4c3C(=O)N(C3CCC(=O)NC3=O)C4=O)c2)n1 (configuration not stated)
[b] COc1cc(F)ccc1-c1ncnc(Nc2cccc(CS(C)(=O)=NC(=O)CCc3cn(CCCCCCCC(=O)NCCNc4cccc5c4C(=O)N(C4CCC(=O)NC4=O)C5=O)nn3)c2)n1 (configuration not stated)
[Q] Select the item with the higher value of IC50 from the options a and b listed. Answer = label.
[A] b
(b: 4.14 µM, a: 1.22 µM)

[a] COc1cc(F)ccc1-c1ncnc(Nc2cccc(CS(C)(=O)=NC(=O)CCC(=O)CCC(=O)NCCNc3cccc4c3C(=O)N(C3CCC(=O)NC3=O)C4=O)c2)n1 (configuration not stated)
[b] COc1cc(F)ccc1-c1ncnc(Nc2cccc(CS(C)(=O)=NC(=O)CCc3cn(CCCCCC(=O)NCCNc4cccc5c4C(=O)N(C4CCC(=O)NC4=O)C5=O)nn3)c2)n1 (configuration not stated)
[Q] // pick larger IC50 from pair: a vs b Respond using the label that marks the chosen record.
[A] b

###

# Assay system: Protein cereblon/Cyclin-dependent kinase 9 (Homo sapiens, UniProt P50750+Q96SW2)
# Assay overview: Protac activity at CRBN/CDK9 in human MV4-11 cells assessed as induction of CDK9 degradation incubated for 6 hrs by Western blot assay
# Type: cell-based
# Sequence (P50750 whole entry): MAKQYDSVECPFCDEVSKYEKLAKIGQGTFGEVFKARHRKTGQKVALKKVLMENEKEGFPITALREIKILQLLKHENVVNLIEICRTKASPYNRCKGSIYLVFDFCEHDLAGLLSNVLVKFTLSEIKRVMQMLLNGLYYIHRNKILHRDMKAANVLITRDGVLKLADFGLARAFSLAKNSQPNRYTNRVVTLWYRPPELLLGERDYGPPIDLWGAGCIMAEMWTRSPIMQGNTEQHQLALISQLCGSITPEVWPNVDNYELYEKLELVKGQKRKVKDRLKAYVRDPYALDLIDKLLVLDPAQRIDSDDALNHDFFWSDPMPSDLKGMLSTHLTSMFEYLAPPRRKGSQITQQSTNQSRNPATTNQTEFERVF
# Sequence (Q96SW2 whole entry): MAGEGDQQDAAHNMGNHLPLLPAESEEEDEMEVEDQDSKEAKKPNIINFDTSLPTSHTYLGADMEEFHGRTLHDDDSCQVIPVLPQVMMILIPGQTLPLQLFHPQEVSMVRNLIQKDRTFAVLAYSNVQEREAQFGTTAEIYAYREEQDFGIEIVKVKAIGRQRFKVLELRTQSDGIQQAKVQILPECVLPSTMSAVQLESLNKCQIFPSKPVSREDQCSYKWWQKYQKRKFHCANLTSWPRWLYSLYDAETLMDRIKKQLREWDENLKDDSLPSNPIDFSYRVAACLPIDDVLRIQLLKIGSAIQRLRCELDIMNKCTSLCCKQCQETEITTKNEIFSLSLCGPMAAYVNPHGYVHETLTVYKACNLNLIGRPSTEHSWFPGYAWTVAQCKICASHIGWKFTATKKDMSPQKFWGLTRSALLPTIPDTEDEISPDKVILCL
Assay endpoint: DC50 (nM)

Look over these answered cases.
Compound	Readout number
COc1cc(F)ccc1-c1ncnc(Nc2cccc(CS(C)(=O)=NC(=O)CCCC(=O)NCCNc3cccc4c3C(=O)N(C3CCC(=O)NC3=O)C4=O)c2)n1 (centres undefined)	27.3
COc1cc(F)ccc1-c1ncnc(Nc2cccc(CS(C)(=O)=NC(=O)CCc3cn(CCCCCCCC(=O)NCCNc4cccc5c4C(=O)N(C4CCC(=O)NC4=O)C5=O)nn3)c2)n1 (centres undefined)	10.3

[a] COc1cc(F)ccc1-c1ncnc(Nc2cccc(CS(C)(=O)=NC(=O)CCCCCCCC(=O)NCCNc3cccc4c3C(=O)N(C3CCC(=O)NC3=O)C4=O)c2)n1 (centres undefined)
[b] COc1cc(F)ccc1-c1ncnc(Nc2cccc(CS(C)(=O)=NC(=O)CCCCCCCCCC(=O)NCCNc3cccc4c3C(=O)N(C3CCC(=O)NC3=O)C4=O)c2)n1 (centres undefined)
[Q] Compare the recorded DC50 of a and b ; state which is larger. Select an item and report its label.
[A] b
(b: 31.2 nM, a: 7.62 nM)

###

# Test system: HCT-116
# Assay overview: Antiproliferative activity against human HCT-116 cells incubated for 72 hrs by MTT assay
# Assay type: functional, cell-based
# Assay conditions: HCT-116, 72 h
Assay endpoint: IC50 (µM)

Compound	Readout unit	IC50
COc1cc(F)ccc1-c1ncnc(Nc2cccc(CS(C)(=O)=NC(=O)COCCOCCOCC(=O)NCCNc3cccc4c3C(=O)N(C3CCC(=O)NC3=O)C4=O)c2)n1 (stereo not drawn)	µM	12.2

[a] COc1cc(F)ccc1-c1ncnc(Nc2cccc(CS(C)(=O)=NC(=O)CCC(=O)CCC(=O)NCCNc3cccc4c3C(=O)N(C3CCC(=O)NC3=O)C4=O)c2)n1 (stereo not drawn)
[b] COc1cc(F)ccc1-c1ncnc(Nc2cccc(CS(C)(=O)=NC(=O)CCc3cn(CCCCCCCC(=O)NCCNc4cccc5c4C(=O)N(C4CCC(=O)NC4=O)C5=O)nn3)c2)n1 (stereo not drawn)
[Q] API: POST /compare with a and b ; response names the item with higher IC50. Your answer should be the label of the entry you select.
[A] b
(b: 5.51 µM, a: 3 µM)

###

# Assay system: Protein cereblon/Cyclin-dependent kinase 9 (Homo sapiens, UniProt P50750+Q96SW2)
# Assay overview: Protac activity at CRBN/CDK9 in human MV4-11 cells assessed as CDK9 degradation rate at 500 nM incubated for 6 hrs by Western blot assay relative to control
# Format: cell-based
# Sequence (P50750 whole entry, looked up): as the sequence (P50750 whole entry) above
# Sequence (Q96SW2 whole entry, looked up): as the sequence (Q96SW2 whole entry) above
Assay endpoint: Activity (%)

[I] COc1cc(N2CCN(CCCCCC(=O)NCCNc3cccc4c3C(=O)N(C3CCC(=O)NC3=O)C4=O)CC2)ccc1-c1ncnc(Nc2cccc(CS(C)(=N)=O)c2)n1 (centres undefined)
[II] COc1cc(F)ccc1-c1ncnc(Nc2cccc(CS(C)(=O)=NC(=O)CCc3cn(CCCCCCCC(=O)NCCNc4cccc5c4C(=O)N(C4CCC(=O)NC4=O)C5=O)nn3)c2)n1 (centres undefined)
[Q] Would you mind telling me which has the lower recorded Activity between I and II ? Identify your pick by its label.
[A] I

[1] COc1cc(F)ccc1-c1ncnc(Nc2cccc(CS(C)(=O)=NC(=O)COCCOCCOCC(=O)NCCNc3cccc4c3C(=O)N(C3CCC(=O)NC3=O)C4=O)c2)n1 (centres undefined)
[2] COc1cc(F)ccc1-c1ncnc(Nc2cccc(CS(C)(=O)=NC(=O)CCCC(=O)NCCNc3cccc4c3C(=O)N(C3CCC(=O)NC3=O)C4=O)c2)n1 (centres undefined)
[Q] Higher Activity: 1 or 2 ? Kindly give the label for the entry you pick.
[A] 2

###

# Test system: MOLM-13
# Assay overview: Antiproliferative activity against human MOLM-13 cells incubated for 72 hrs by MTT assay
# Assay type: functional, cell-based
# Assay conditions: MOLM-13, 72 h
Assay endpoint: IC50 (µM)

Compound	Readout unit	IC50
COc1cc(F)ccc1-c1ncnc(Nc2cccc(CS(C)(=O)=NC(=O)CCc3cn(CCCCCC(=O)NCCNc4cccc5c4C(=O)N(C4CCC(=O)NC4=O)C5=O)nn3)c2)n1 (stereo not given)	µM	0.99
COc1cc(F)ccc1-c1ncnc(Nc2cccc(C[S@](C)(=N)=O)c2)n1	µM	0.2
COc1cc(F)ccc1-c1ncnc(Nc2cccc(CS(C)(=O)=NC(=O)CCCCCC(=O)NCCCCCNc3cccc4c3C(=O)N(C3CCC(=O)NC3=O)C4=O)c2)n1 (stereo not given)	µM	0.47
COc1cc(F)ccc1-c1ncnc(Nc2cccc(CS(C)(=O)=NC(=O)CCCC(=O)NCCNc3cccc4c3C(=O)N(C3CCC(=O)NC3=O)C4=O)c2)n1 (stereo not given)	µM	2.8

[A] COc1cc(F)ccc1-c1ncnc(Nc2cccc(CS(C)(=O)=NC(=O)COCCOCCOCC(=O)NCCNc3cccc4c3C(=O)N(C3CCC(=O)NC3=O)C4=O)c2)n1 (stereo not given)
[B] COc1cc(F)ccc1-c1ncnc(Nc2cccc(CS(C)(=O)=NC(=O)CCc3cn(CCCCCCCC(=O)NCCNc4cccc5c4C(=O)N(C4CCC(=O)NC4=O)C5=O)nn3)c2)n1 (stereo not given)
[C] COc1cc(F)ccc1-c1ncnc(Nc2cccc(CS(C)(=O)=NC(=O)CCCCCCCC(=O)NCCNc3cccc4c3C(=O)N(C3CCC(=O)NC3=O)C4=O)c2)n1 (stereo not given)
[Q] Descending sort on IC50 required. Output spec: labels arranged per the requested ranking.
[A] A, B, C

###

# System: HCT-116
# Assay overview: Antiproliferative activity against human HCT-116 cells incubated for 72 hrs by MTT assay
# Type: functional, cell-based
# Assay conditions: HCT-116, 72 h
pIC50: −log10 of the molar value.
Assay endpoint: pIC50

Here is how some compounds turned out for pIC50.
Compound	Readout number
COc1cc(F)ccc1-c1ncnc(Nc2cccc(CS(C)(=O)=NC(=O)CCCCCCCCCC(=O)NCCNc3cccc4c3C(=O)N(C3CCC(=O)NC3=O)C4=O)c2)n1 (stereo unspecified)	5.49
COc1cc(F)ccc1-c1ncnc(Nc2cccc(CS(C)(=O)=NC(=O)CCCC(=O)NCCNc3cccc4c3C(=O)N(C3CCC(=O)NC3=O)C4=O)c2)n1 (stereo unspecified)	4.69

[I] COc1cc(F)ccc1-c1ncnc(Nc2cccc(CS(C)(=O)=NC(=O)CCc3cn(CCCCCC(=O)NCCNc4cccc5c4C(=O)N(C4CCC(=O)NC4=O)C5=O)nn3)c2)n1 (stereo unspecified)
[II] COc1cc(F)ccc1-c1ncnc(Nc2cccc(CS(C)(=O)=NC(=O)CCCCCC(=O)NCCCCCNc3cccc4c3C(=O)N(C3CCC(=O)NC3=O)C4=O)c2)n1 (stereo unspecified)
[III] COc1cc(F)ccc1-c1ncnc(Nc2cccc(CS(C)(=O)=NC(=O)CCCCCCCC(=O)NCCNc3cccc4c3C(=O)N(C3CCC(=O)NC3=O)C4=O)c2)n1 (stereo unspecified)
[Q] Put the compounds in ascending order of pIC50. Form field (ranking): labels in requested order.
[A] I, III, II
(I: 4.78, III: 5.51, II: 5.85)
